- Tested on: T1, Soluble CD28-Ig (extracellular domain of human CD28 fused to the Fc portion of human IgG1) (human, UniProt P10747 19-152, biotin-conjugated (NHS-biotin) in the FACS binding assays)
- T1 construct: extracellular domain; bought from R&D Systems; also called sCD28-Ig; CD28-Ig Fc; not shown: Fc portion of human IgG1
- Protocol: competitive FACS on transfected cells, biotin-sCD28-Ig with FITC-sCTLA-4-Ig; grade 0-2 of CD28/CTLA-4 ratio vs WT hB7-1
# Binding Score annotations
Lab note: record just the number, no unit beside it.

Binder: Round 2 CD28B6-6 (ligand) ITPKSVTKRVKETVMLSCDYSTSTEELTSLRIYWQKDSKMVLAILPGKVQVWPEYKNRTITDMNDNPRIVILALRLSDKGTYTCVIQKPVLKGAYKLEHLTSVTLSIRADFPVPSITDIGHPAPNVKRIRCSASGGFPEPRLAWMEDGEELNAVNTTVDQDLDTELYSVSSELDFNATNNHSIVCLIKYGELSVSQIFPWSKPKQEPPIDQLPFWVIVPVSGALVLTAVVLYCLACRHVAR
Binding Score: 1

*Q* Fill in the blank: the reported Binding Score of Round 2 CD28H11-3 (ligand) ITPKSVTKRVKETVMLSCDYNTSTEELTSLRIYWQKDSKMVLAILPGKVQVWPEYKNRTITDMNDNPRIVILALRLSDSGTYTCVIQKPVLKGAYKLEHLASVRLMIRADFPVPTINDLGNPSPNIRRLICSTSGGFPRPHLYWLENGEELNATNTTLSQDPETKLYMISSELDFNVTNNHSIVCLIKYGELSVSQIFPWSKPKQEPPIDQLPFWVIIPVSGALVLTAAVLYCLACRHVARWKRTRRNEETVGTERLSPIYLGSAQSSG is ____.
*A* 1

*Q* Try this binder next: Round 2 CD28E5-2 (ligand) ITPKSVTKRVKETVMLSCDYNTSTEELTSLRIYWQKDSKMVLAILPGKVQVWPEYKNRTITDMNDNPRIVILALRLSDSGTYTCVIQKPDLKGAYKLEHLASVRLMIRADFPVPTINDLGNPSPNIRRLICSTSGGFPRPHLYWLENGEELNATNTTLSQDPETKLYMISSELDFNVTNNRSIVCLIKYGELSVSQIFPWSKPKQEPPIDQLPFWVIIPVSGALVLTAVVLYCLACRHVARWKRTRRNEETVGTERLSPIYLGSAQSSG
*A* 0
